The entries below come with measured Pre-emergence efficacy against SETVI values attached.
test system: Setaria viridis (SETVI); assay: A. Herbicidal pre-emergence efficacy, SETVI; format: in vivo; details: dosage 320 g/ha
Lab book: enter the figure in %, no units written.

Before answering, review these 2 worked examples.
O=S(=O)(CCC1CC1(Cl)Cl)Oc1c(F)cccc1Oc1ncc(Cl)cn1 (stereo not drawn) = 90
O=S(=O)(CCC(F)=C(F)F)Oc1c(Cl)cccc1Oc1ncc(Cl)cn1 = 90

Prompt: Look at this compound and give its reported Pre-emergence efficacy against SETVI. Cc1cccc(Oc2ncc(Cl)cn2)c1OS(=O)(=O)CCC(F)(F)F
Response: 100

Prompt: Look at this compound and give its reported Pre-emergence efficacy against SETVI. O=S(=O)(CCC(F)(F)F)Oc1c(Br)cccc1Oc1ncc(Cl)cn1
Response: 100

Prompt: Look at this compound and give its reported Pre-emergence efficacy against SETVI. O=S(=O)(CCCC(F)(F)F)Oc1ccccc1Oc1ccc(Cl)cn1
Response: 90

Prompt: Look at this compound and give its reported Pre-emergence efficacy against SETVI. Cc1cccc(Oc2ncc(Cl)cn2)c1OS(=O)(=O)CCCC(F)(F)F
Response: 100
